# maps each entry to its residual activity
molecular target: INSRR (human); test: radiometric filter-binding kinase assay, Kinase HotSpot; conditions: compound 0.5 µM; ATP 10 µM
Reply with a number, then the unit it belongs to.

Smiles repr: Cc1nc(-c2ccccc2)c(-c2ccncc2)o1
residual activity: 101%
//
Smiles repr: CS(=O)(=O)CCNCc1ccc(-c2ccc3ncnc(Nc4ccc(OCc5cccc(F)c5)c(Cl)c4)c3c2)o1
residual activity: 104%
//
Smiles repr: Cc1cccc(-c2nc(C(C)(C)C)[nH]c2-c2ccc3c(c2)OCO3)n1
residual activity: 95.1%
//
Smiles repr: CO[C@@H]1[C@H](N(C)C(=O)c2ccccc2)C[C@H]2O[C@]1(C)n1c3ccccc3c3c4c(c5c6ccccc6n2c5c31)C(=O)NC4
residual activity: 96.2%
//
Smiles repr: COc1cc2ncnc(Nc3ccc(Oc4ccccc4)cc3)c2cc1OC
residual activity: 102%
//
Smiles repr: O=C1C(Cl)=C(N2C(=O)CCC2=O)C(=O)c2ccccc21
residual activity: 96.9%

Look at this compound and give its reported residual activity. CN(C)c1ccc(/C=C2\C(=O)Nc3ccccc32)cc1 94.5%

Same for c1ccc2c(-c3ccncc3)c[nH]c2c1 101%

Same for N#C/C(=C\c1ccc(O)c(O)c1)C(=O)NCc1ccccc1 96.3%

Same for COc1ccc(S(=O)(=O)N(CCO)c2ccccc2CN(C)C/C=C/c2ccc(Cl)cc2)cc1 97%

Just for reference, the kinase profiling compilation of Christmann-Franck et al. (2016) is where these values come from.
